target: MAP3K11 (human) (UniProt Q16584); assay: radiometric filter-binding kinase assay, Kinase HotSpot; details: compound 0.5 µM; ATP 10 µM
Sequence (Q16584 whole entry, looked up): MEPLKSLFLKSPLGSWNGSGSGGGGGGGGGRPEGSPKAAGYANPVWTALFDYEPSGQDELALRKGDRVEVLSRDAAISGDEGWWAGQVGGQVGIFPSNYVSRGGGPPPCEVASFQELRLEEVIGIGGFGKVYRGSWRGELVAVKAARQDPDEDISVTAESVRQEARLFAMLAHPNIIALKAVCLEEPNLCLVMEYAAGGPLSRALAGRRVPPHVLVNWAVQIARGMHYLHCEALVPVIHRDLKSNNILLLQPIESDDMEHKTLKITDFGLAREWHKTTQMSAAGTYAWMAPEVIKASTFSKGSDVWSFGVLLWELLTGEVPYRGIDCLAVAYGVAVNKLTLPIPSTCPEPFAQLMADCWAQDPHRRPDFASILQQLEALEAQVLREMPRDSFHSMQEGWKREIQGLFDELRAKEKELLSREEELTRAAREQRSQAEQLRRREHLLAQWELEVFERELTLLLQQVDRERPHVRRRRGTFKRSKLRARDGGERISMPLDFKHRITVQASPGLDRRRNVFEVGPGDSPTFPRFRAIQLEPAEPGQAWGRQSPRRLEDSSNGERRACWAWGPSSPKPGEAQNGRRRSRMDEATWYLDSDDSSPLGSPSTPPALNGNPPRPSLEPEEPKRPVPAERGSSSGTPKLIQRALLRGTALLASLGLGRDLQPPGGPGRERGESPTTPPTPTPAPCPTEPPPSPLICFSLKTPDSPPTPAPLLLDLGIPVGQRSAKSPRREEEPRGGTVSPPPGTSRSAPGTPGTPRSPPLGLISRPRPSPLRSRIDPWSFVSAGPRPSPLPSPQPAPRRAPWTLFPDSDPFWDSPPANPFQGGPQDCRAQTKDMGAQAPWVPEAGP
MEASURED PROPERTY: residual activity (%)
Expressed in %, but write only the number.

1) COc1ccc(C(=O)Nc2sc3c(c2C(N)=O)CCCC3)cc1OC    96.8

Problem: Quick one: residual activity for N#Cc1c[nH]c2c[nH]/c(=N\Cc3cccnc3)cc2/c1=N\c1ccc(F)c(Cl)c1 ?
Result: 89

Problem: Form field: reported residual activity of CS(=O)(=O)CCNCc1ccc(-c2ccc3ncnc(Nc4ccc(OCc5cccc(F)c5)c(Cl)c4)c3c2)o1
Result: 106

Problem: What value of residual activity has been reported for the following molecule? O=C(c1cc2cc(O)ccc2[nH]1)c1cc2cc(O)ccc2[nH]1
Result: 24.5

Problem: What does the data say about its residual activity? Entry: COc1ccc2c(c1)c(C1=C(c3c[nH]c4ccccc34)C(=O)NC1=O)cn2CCCN(C)C
Result: 75.6

###

residual activity values, listed per item
target: PRKACG (human) (UniProt P22612); experiment: radiometric filter-binding kinase assay, Kinase HotSpot; conditions: compound 0.5 µM; ATP 10 µM
Sequence (P22612 whole entry, looked up): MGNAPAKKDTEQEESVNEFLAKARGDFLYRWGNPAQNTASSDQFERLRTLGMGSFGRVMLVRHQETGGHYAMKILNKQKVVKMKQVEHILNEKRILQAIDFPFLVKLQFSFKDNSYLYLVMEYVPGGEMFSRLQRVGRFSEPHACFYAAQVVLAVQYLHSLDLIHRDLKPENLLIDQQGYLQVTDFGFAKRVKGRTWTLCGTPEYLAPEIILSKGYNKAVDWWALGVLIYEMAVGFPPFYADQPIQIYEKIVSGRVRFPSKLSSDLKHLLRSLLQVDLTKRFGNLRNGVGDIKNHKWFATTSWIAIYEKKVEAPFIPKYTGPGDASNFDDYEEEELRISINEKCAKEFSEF
Numbers only here, please. The scale is %.

Problem: Hi! What's the reported residual activity for c1ccc2c(-c3ccncc3)c[nH]c2c1 on PRKACG (human) (UniProt P22612)?
Result: 107

Problem: PRKACG (human) (UniProt P22612) / residual activity / C[C@@H]1CCN(C(=O)CC#N)C[C@@H]1N(C)c1ncnc2[nH]ccc12 : value?
Result: 111

Problem: Provide the documented residual activity with PRKACG (human) (UniProt P22612) as the system for N#C/C(=C\c1ccc(O)c(O)c1)C(=O)NCc1ccccc1
Result: 90.7

###

target: SYK (human); test: radiometric filter-binding kinase assay, Kinase HotSpot; details: compound 0.5 µM; ATP 10 µM
MEASURED PROPERTY: residual activity (%)
Give a bare numeral; the unit % is implied.

Here are 4 compounds together with their reported answers.
1. CN(C)S(=O)(=O)c1ccc2c(c1)/C(=C/c1cc3c([nH]1)CCCC3)C(=O)N2    77.7
2. COc1ccc(S(=O)(=O)N(CCO)c2ccccc2CN(C)C/C=C/c2ccc(Cl)cc2)cc1    101
3. CS(=O)(=O)CCNCc1ccc(-c2ccc3ncnc(Nc4ccc(OCc5cccc(F)c5)c(Cl)c4)c3c2)o1    113
4. COc1ccc2c(c1)c(C1=C(c3c[nH]c4ccccc34)C(=O)NC1=O)cn2CCCN(C)C    68.5

Problem: For the compound COc1cc2ncnc(Nc3ccc(OCc4ccccc4)cc3)c2cc1OC , what residual activity is on record?
Result: 93.1

Problem: Bench note: what residual activity did Fc1ccc(-c2nc3n(c2-c2ccncc2)CCS3)cc1 show?
Result: 98.3

Problem: If you can, please state the reported residual activity value of COc1ccc(C(=O)Nc2sc3c(c2C(N)=O)CCCC3)cc1OC .
Result: 91.2

###

Recorded residual activity for the following compounds
biological target: CDK1 CCNB1 (human) (UniProt P06493+P14635); assay: radiometric filter-binding kinase assay, Kinase HotSpot; settings: compound 0.5 µM; ATP 10 µM
Sequence (P06493 whole entry, looked up): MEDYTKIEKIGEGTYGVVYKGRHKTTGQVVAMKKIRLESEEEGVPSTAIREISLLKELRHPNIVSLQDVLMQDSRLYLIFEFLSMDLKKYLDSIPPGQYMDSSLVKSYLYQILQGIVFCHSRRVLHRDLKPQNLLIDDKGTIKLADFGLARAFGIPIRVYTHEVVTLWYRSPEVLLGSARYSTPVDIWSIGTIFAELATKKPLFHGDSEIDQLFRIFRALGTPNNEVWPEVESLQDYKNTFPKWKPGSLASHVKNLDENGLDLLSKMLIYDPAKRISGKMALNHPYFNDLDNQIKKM
Sequence (P14635 whole entry, looked up): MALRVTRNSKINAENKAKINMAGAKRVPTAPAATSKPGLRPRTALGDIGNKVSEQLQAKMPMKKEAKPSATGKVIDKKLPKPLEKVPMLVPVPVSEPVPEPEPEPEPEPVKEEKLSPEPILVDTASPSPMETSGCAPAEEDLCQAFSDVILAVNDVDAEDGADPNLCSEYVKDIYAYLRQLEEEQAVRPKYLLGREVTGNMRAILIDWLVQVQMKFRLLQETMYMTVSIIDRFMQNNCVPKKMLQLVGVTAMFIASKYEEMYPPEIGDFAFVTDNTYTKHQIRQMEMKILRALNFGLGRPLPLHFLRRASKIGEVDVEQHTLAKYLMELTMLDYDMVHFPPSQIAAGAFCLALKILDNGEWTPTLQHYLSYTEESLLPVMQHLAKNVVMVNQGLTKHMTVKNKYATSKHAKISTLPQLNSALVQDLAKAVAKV
# output: bare number, implied unit %

Solved entries:
1) CS(=O)(=O)CCNCc1ccc(-c2ccc3ncnc(Nc4ccc(OCc5cccc(F)c5)c(Cl)c4)c3c2)o1    100
2) COc1ccc2c(c1)/C(=C/c1cnc[nH]1)C(O)=N2    35.9
3) O=C1Nc2ccc(Br)cc2/C1=C\c1cc2c([nH]1)CCCC2    98.5
4) CCCCc1c(-c2ccc(OC)cc2)[nH]c2nccnc12    47.7
5) N#C/C(=C\c1ccc(O)c(O)c1)C(=O)NCc1ccccc1    96.9
6) COc1ccc2c(c1)c(C1=C(c3c[nH]c4ccccc34)C(=O)NC1=O)cn2CCCN(C)C    94.4
7) Ic1cccc(CSc2nnc(-c3ccncc3)o2)c1    92
8) COc1ccc(Cl)cc1NC(=O)Nc1cc(C)nc2ccccc12    81.1
9) Cn1c2ccccc2c2c3c(c4c5ccccc5n(CCC#N)c4c21)CNC3=O    38.7
10) Fc1ccc(-c2nc3n(c2-c2ccncc2)CCS3)cc1    91.4

Problem: Lab note: need residual activity with CDK1 CCNB1 (human) (UniProt P06493+P14635) for entry CN(C)CCCn1cc(C2=C(c3c[nH]c4ccccc34)C(=O)NC2=O)c2ccccc21 , please look it up.
Result: 92

Problem: Which measured residual activity belongs to NCCNc1ncc(C(N)=O)c(Nc2cccc(C(F)(F)F)c2)n1 , tested on CDK1 CCNB1 (human) (UniProt P06493+P14635)?
Result: 81.7

Problem: Which residual activity is reported with CDK1 CCNB1 (human) (UniProt P06493+P14635) for this entry: N#Cc1c[nH]c2c[nH]/c(=N\Cc3cccnc3)cc2/c1=N\c1ccc(F)c(Cl)c1 ?
Result: 84.6

Problem: Which measured residual activity belongs to CN(C)c1ccc(/C=C2\C(=O)Nc3ccccc32)cc1 , tested on CDK1 CCNB1 (human) (UniProt P06493+P14635)?
Result: 94.1

Problem: Param readout = residual activity; param system = CDK1 CCNB1 (human) (UniProt P06493+P14635); param query = Cc1cccc(-c2nc(C(C)(C)C)[nH]c2-c2ccc3c(c2)OCO3)n1 ; response: value
Result: 100

###

target: CHEK2 (human) (UniProt O96017); experiment: radiometric filter-binding kinase assay, Kinase HotSpot; conditions: compound 0.5 µM; ATP 10 µM
Sequence (O96017 whole entry, looked up): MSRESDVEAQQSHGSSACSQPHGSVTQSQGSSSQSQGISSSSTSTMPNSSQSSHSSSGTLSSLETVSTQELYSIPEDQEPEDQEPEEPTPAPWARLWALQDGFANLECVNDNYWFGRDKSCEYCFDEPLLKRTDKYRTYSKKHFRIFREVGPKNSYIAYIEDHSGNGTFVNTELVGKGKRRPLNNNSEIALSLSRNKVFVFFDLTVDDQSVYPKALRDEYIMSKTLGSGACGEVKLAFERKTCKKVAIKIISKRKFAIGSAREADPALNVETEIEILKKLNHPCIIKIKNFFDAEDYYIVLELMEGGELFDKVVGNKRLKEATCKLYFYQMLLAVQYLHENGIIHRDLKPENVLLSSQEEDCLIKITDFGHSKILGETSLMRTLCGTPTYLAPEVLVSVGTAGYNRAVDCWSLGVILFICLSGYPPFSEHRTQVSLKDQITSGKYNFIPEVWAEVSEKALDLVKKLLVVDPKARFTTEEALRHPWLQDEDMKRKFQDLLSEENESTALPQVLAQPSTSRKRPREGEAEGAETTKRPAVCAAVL
MEASURED PROPERTY: residual activity (%)
Write down the numeric answer in % and omit the unit.

1. Ic1cccc(CSc2nnc(-c3ccncc3)o2)c1    102
2. CS(=O)(=O)CCNCc1ccc(-c2ccc3ncnc(Nc4ccc(OCc5cccc(F)c5)c(Cl)c4)c3c2)o1    96.8

Problem: Give its residual activity value. Item: N#Cc1c[nH]c2c[nH]/c(=N\Cc3cccnc3)cc2/c1=N\c1ccc(F)c(Cl)c1
Result: 90.5

Problem: For the compound shown here, CC(C)(C)c1cc(C=C(C#N)C#N)cc(Br)c1O , give the reported residual activity.
Result: 104

###

molecular target: CDK1 CCNA2 (human) (UniProt P06493+P20248); assay: radiometric filter-binding kinase assay, Kinase HotSpot; conditions: compound 0.5 µM; ATP 10 µM
Sequence (P06493 whole entry, looked up): as the sequence (P06493 whole entry, looked up) above
Sequence (P20248 whole entry, looked up): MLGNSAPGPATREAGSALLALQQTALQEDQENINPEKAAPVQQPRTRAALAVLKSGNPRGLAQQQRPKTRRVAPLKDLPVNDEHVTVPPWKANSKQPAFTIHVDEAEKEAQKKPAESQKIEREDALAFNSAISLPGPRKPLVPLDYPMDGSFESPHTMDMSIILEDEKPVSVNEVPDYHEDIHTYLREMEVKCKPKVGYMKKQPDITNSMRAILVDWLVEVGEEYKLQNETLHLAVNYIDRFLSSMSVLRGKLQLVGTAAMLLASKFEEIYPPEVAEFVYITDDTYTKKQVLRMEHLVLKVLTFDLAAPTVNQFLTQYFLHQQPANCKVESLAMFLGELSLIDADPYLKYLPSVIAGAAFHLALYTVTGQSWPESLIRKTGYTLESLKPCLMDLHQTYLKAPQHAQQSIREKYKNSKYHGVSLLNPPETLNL
MEASURED PROPERTY: residual activity (%)
Respond numerically; units are % and should not be typed.

Check out these entries, answers already filled in.
1. CN(C)S(=O)(=O)c1ccc2c(c1)/C(=C/c1cc3c([nH]1)CCCC3)C(=O)N2    70.6
2. O=C1C(Cl)=C(N2C(=O)CCC2=O)C(=O)c2ccccc21    99.8

Problem: Reported residual activity, molecule Cc1nc(-c2ccccc2)c(-c2ccncc2)o1 : ____
Result: 94.7

Problem: Fill in: residual activity of N#Cc1c[nH]c2c[nH]/c(=N\Cc3cccnc3)cc2/c1=N\c1ccc(F)c(Cl)c1 is ___
Result: 88

Problem: residual activity lookup needed for COc1ccc(S(=O)(=O)N(CCO)c2ccccc2CN(C)C/C=C/c2ccc(Cl)cc2)cc1 , thanks.
Result: 96.5

Problem: Given Ic1cccc(CSc2nnc(-c3ccncc3)o2)c1 , state its recorded residual activity.
Result: 99.8

Problem: Fill in: residual activity of NC(=O)c1cccc(-c2cc(Nc3ccc(OC(F)(F)F)cc3)ncn2)c1 is ___
Result: 103

###

system: MKNK1 (human), Q9BUB5 [T385D; 165-205 del]; assay: radiometric filter-binding kinase assay, Kinase HotSpot; conditions: compound 0.5 µM; ATP 10 µM
Sequence (Q9BUB5 whole entry, looked up, stated change not applied): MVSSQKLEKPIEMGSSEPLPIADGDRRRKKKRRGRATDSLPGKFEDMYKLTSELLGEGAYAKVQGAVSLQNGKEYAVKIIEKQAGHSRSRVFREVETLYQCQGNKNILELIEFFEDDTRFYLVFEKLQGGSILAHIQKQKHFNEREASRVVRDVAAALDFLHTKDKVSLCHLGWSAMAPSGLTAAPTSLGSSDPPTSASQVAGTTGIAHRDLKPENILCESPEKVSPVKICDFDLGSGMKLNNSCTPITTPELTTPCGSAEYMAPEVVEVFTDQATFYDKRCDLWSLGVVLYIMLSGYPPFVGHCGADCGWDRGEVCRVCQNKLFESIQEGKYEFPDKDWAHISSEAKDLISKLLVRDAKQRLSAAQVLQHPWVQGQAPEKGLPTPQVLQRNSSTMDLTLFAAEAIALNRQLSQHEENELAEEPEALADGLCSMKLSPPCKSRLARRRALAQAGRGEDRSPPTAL
MEASURED PROPERTY: residual activity

// known answers, use as guide
1) Nc1n[nH]c2nnc(-c3c(-c4ccccc4)nn4ccccc34)cc12    98.5%
2) COc1ccc(OC)c2c(=S)c3ccccc3[nH]c12    115%
3) O=c1c(-c2ccc(F)cc2)c(-c2ccncc2)[nH]n1-c1ccc(Cl)cc1    93.9%

Problem: Report residual activity for CCN1/C(=C/C(C)=O)Sc2ccc(OC)cc21 please.
Result: 119%

###

Each item that follows carries a reported residual activity.
biological target: UniProtKB P15735; experiment: radiometric filter-binding kinase assay, Kinase HotSpot; conditions: compound 0.5 µM; ATP 10 µM
Sequence (P15735 whole entry, looked up): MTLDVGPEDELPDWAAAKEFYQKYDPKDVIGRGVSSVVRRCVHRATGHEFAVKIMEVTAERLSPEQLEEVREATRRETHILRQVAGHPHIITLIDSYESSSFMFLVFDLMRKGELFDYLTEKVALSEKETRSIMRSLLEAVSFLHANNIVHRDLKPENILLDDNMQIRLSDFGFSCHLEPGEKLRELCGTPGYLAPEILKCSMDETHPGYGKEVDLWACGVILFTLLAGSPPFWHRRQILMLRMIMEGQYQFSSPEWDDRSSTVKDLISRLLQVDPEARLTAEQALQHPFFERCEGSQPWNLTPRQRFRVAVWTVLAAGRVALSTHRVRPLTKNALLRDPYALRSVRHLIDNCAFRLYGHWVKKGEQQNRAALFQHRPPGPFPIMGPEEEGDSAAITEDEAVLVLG
A number alone suffices; assume %.

Problem: Suppose we examine the compound Cc1nc(-c2ccccc2)c(-c2ccncc2)o1 ; what residual activity value has been reported?
Result: 97.6

Problem: For Cc1cncc2cccc(S(=O)(=O)N3CCCN(C(=O)CN)C[C@H]3C)c12 , what is its reported residual activity?
Result: 90.5

Problem: Please look up its residual activity: Fc1ccc(-c2nc3n(c2-c2ccncc2)CCS3)cc1
Result: 104

###

residual activity: recorded values
target: PRKCE (human); experiment: radiometric filter-binding kinase assay, Kinase HotSpot; details: compound 0.5 µM; ATP 10 µM
Supply the numeric figure in %, leaving out any unit text.

1) COc1ccc2c(c1)c(C1=C(c3c[nH]c4ccccc34)C(=O)NC1=O)cn2CCCN(C)C    14.6
2) NC(=O)c1cccc(-c2cc(Nc3ccc(OC(F)(F)F)cc3)ncn2)c1    111
3) CN(C)CCCn1cc(C2=C(c3c[nH]c4ccccc34)C(=O)NC2=O)c2ccccc21    0.493
4) Fc1ccc(-c2nc3n(c2-c2ccncc2)CCS3)cc1    97.7
5) CS(=O)(=O)CCNCc1ccc(-c2ccc3ncnc(Nc4ccc(OCc5cccc(F)c5)c(Cl)c4)c3c2)o1    98

Problem: Which residual activity is listed for N#C/C(=C\c1ccc(O)c(O)c1)C(=O)NCc1ccccc1 ?
Result: 100

Problem: Could you tell me which residual activity is on file for Ic1cccc(CSc2nnc(-c3ccncc3)o2)c1 ?
Result: 86.5

Problem: Please give the measured residual activity for this compound: CN(C)S(=O)(=O)c1ccc2c(c1)/C(=C/c1cc3c([nH]1)CCCC3)C(=O)N2
Result: 94.6

Problem: Can you look up the measured residual activity of CN(C)c1ccc(/C=C2\C(=O)Nc3ccccc32)cc1 for me?
Result: 92.6

Problem: Give its residual activity value. Item: COc1ccc(Cl)cc1NC(=O)Nc1cc(C)nc2ccccc12
Result: 99.7

Problem: // residual activity lookup, key: CCCCc1c(-c2ccc(OC)cc2)[nH]c2nccnc12
Result: 102
